assayTarget: p110δ/p85α (Homo sapiens, UniProt O00329)
Sequence (O00329 whole entry): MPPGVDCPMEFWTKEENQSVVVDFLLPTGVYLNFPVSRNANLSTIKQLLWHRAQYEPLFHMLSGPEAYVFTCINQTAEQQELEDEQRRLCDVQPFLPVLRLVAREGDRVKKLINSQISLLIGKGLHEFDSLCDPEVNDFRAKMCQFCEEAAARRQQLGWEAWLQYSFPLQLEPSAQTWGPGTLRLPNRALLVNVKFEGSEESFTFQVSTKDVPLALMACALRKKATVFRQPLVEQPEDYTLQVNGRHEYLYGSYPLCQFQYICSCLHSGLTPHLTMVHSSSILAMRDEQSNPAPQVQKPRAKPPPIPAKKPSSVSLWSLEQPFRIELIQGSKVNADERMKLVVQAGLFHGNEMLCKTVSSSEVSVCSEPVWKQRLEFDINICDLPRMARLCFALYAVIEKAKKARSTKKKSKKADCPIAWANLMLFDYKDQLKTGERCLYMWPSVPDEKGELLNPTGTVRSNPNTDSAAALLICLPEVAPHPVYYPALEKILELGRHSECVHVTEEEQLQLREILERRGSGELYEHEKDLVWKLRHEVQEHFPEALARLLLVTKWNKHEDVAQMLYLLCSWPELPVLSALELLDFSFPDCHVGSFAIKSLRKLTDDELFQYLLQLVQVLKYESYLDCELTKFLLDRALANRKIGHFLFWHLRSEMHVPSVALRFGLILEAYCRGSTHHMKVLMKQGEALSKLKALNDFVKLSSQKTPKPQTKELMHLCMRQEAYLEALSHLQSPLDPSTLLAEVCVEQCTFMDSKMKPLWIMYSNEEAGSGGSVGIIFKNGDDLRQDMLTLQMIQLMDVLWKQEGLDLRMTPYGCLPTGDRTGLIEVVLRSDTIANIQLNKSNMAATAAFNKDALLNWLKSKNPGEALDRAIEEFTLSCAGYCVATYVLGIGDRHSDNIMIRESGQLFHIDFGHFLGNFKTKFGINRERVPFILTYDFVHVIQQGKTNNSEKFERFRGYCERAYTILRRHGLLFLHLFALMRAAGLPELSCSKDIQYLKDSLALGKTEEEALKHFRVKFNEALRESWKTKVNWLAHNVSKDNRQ
Sequence (P27986 whole entry partner): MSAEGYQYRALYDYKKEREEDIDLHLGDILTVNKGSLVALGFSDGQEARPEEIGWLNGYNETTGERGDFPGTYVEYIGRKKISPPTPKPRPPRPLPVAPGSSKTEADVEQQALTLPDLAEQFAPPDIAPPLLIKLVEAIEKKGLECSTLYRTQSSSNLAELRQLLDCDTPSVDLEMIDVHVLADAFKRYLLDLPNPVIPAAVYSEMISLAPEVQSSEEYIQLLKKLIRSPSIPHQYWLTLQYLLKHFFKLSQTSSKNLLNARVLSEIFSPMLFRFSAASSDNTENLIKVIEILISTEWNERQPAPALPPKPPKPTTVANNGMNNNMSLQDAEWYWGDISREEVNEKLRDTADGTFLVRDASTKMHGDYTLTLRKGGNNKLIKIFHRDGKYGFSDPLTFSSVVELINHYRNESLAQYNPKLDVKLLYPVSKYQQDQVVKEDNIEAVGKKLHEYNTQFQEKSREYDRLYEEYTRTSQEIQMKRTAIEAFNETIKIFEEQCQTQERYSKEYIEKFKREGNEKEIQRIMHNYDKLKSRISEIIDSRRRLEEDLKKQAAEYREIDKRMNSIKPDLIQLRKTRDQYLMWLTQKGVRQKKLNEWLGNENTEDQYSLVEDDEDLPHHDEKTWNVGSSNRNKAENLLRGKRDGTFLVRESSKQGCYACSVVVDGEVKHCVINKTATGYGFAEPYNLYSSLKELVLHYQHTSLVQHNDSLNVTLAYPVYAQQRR
test: Transcreener KINASE Assay, kinase inhibition of p110δ/p85α
conditionSummary: read-out: PI3Kδ IC50
pIC50: −log10 of the molar value.
quantity: pIC50

> print(dat)
                                   molecule  testvalue
1  COc1nc(N)nc(N2CC[C@H]2c2nn3ccc(Cl)c3c(=O)n2-c2ccccc2)c1C#N [Compound 378]       6.66

P. COCC#Cc1c[nH]c2ncnc(N3CC[C@H]3c3nn4ccc(Cl)c4c(=O)n3-c3ccccc3)c12 [Compound 279]
Q. O=c1c2c(Cl)ccn2nc([C@@H]2CCCCN2c2ncnc3[nH]cnc23)n1-c1ccccc1 [Compound 203]
R. CS(=O)(=O)[C@H]1C[C@@H](c2nn3ccc(Cl)c3c(=O)n2-c2ccccc2)N(c2ncnc3[nH]cc(C#N)c23)C1 [Compound 365]
S. Cc1cccc(-n2c([C@@H]3CCCN3c3ncnc4[nH]cnc34)nn3ccc(Cl)c3c2=O)n1 [Compound 342]
T. N#Cc1c[nH]c2ncnc(N3CCC[C@H]3c3nn4ccc(Cl)c4c(=O)n3C3CCC3)c12 [Compound 162]
Kindly order the items shown according to pIC50, from the highest value down. Field: ranking. Enter the labels in the order requested.
T, R, P, S, Q
